Please respond with reported concentration at 24 h for every item in the list.
experiment: Drug level in spontaneously hypertensive rat CSF at 10 mg/kg measured after 24 hrs; assay type: ADME, organism-based, Cerebrospinal fluid; parameters: dose 10 mg/kg; details: read-out: Drug uptake
# output: number + unit

Query block: Please supply the value of reported concentration at 24 h for the item "CCS(=O)(=O)CCC12CCC(c3nnc(-c4ccccc4C(F)(F)F)n3C)(CC1)CC2"
Result block: 700 nM

Query block: Please supply the value of reported concentration at 24 h for the item "Cn1c(-c2ccccc2C(F)(F)F)nnc1C12CCC(c3nc(-c4ccc(F)cc4)no3)(CC1)CC2"
Result block: 200 nM

Provide concentration at 24 h values for the following items, in order.
1. Cn1c(-c2ccccc2C(F)(F)F)nnc1C12CCC(c3noc(C(C)(F)F)n3)(CC1)CC2
2. CCS(=O)(=O)CC12CCC(c3nnc(-c4ccccc4C(F)(F)F)n3C)(CC1)CC2

Result block:
3400 nM
700 nM

* * *

molecular target: 11-beta-hydroxysteroid dehydrogenase 1 (Rattus norvegicus, UniProt P16232)
Sequence (P16232 whole entry): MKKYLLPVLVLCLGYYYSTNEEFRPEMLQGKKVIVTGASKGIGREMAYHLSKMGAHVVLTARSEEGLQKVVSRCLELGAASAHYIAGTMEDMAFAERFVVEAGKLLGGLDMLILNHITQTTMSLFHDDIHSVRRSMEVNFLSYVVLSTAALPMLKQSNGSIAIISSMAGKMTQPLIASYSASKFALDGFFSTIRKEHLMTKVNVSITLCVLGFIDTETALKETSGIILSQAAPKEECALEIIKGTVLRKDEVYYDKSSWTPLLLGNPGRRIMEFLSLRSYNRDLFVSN
metric: pIC50
Answers are plain numbers, as −log10 of the molar value.

Query block: Please supply the value of reported pIC50 for the item "CCS(=O)(=O)CC12CCC(c3nnc(-c4ccccc4C(F)(F)F)n3C)(CC1)CC2"
Result block: 8.04

* * *

Please respond with reported Cp(f) for every item in the list.
tested on: Plasma; assay: Free plasma concentration in spontaneously hypertensive rat at 10 mg/kg measured after 24 hrs; assay type: ADME, organism-based; design: dose 10 mg/kg; conditions: in vivo
Answers are plain numbers, in nM.

Below, each entry is followed by its recorded Cp(f) result.
Query block: Please supply the value of reported Cp(f) for the item "CCS(=O)(=O)CC12CCC(c3nnc(-c4ccccc4C(F)(F)F)n3C)(CC1)CC2"
Result block: 2100

Query block: Please supply the value of reported Cp(f) for the item "Cn1c(-c2ccccc2C(F)(F)F)nnc1C12CCC(c3noc(C(C)(F)F)n3)(CC1)CC2"
Result block: 2400

Query block: Please supply the value of reported Cp(f) for the item "CCS(=O)(=O)CCC12CCC(c3nnc(-c4ccccc4C(F)(F)F)n3C)(CC1)CC2"
Result block: 1900

Next:
Query block: Please supply the value of reported Cp(f) for the item "Cn1c(-c2ccccc2C(F)(F)F)nnc1C12CCC(c3nc(-c4ccc(F)cc4)no3)(CC1)CC2"
Result block: 50

* * *

experiment: Drug level in spontaneously hypertensive rat CSF at 10 mg/kg measured after 4 hrs; assay type: ADME, organism-based, Cerebrospinal fluid; design: dose 10 mg/kg; details: read-out: Drug uptake
metric: concentration at 4 h (µM)
One number for each entry, in µM.

Query block: Please supply the value of reported concentration at 4 h for the item "CCS(=O)(=O)CC12CCC(c3nnc(-c4ccccc4C(F)(F)F)n3C)(CC1)CC2"
Result block: 2.1

Query block: Please supply the value of reported concentration at 4 h for the item "Cn1c(-c2ccccc2C(F)(F)F)nnc1C12CCC(c3noc(C(C)(F)F)n3)(CC1)CC2"
Result block: 4.4

Query block: Please supply the value of reported concentration at 4 h for the item "CCS(=O)(=O)CCC12CCC(c3nnc(-c4ccccc4C(F)(F)F)n3C)(CC1)CC2"
Result block: 5.1

Next:
Query block: Please supply the value of reported concentration at 4 h for the item "Cn1c(-c2ccccc2C(F)(F)F)nnc1C12CCC(c3nc(-c4ccc(F)cc4)no3)(CC1)CC2"
Result block: 0.2

* * *

Please respond with reported Drug uptake(free) for every item in the list.
tested on: Brain; assay: Free drug level in spontaneously hypertensive rat brain at 10 mg/kg measured after 24 hrs; assay type: ADME, organism-based; design: dose 10 mg/kg; settings: in vivo
Answers are plain numbers, in µM.

Below, each entry is followed by its recorded Drug uptake(free) result.
Query block: Please supply the value of reported Drug uptake(free) for the item "Cn1c(-c2ccccc2C(F)(F)F)nnc1C12CCC(c3nc(-c4ccc(F)cc4)no3)(CC1)CC2"
Result block: 0.06

Query block: Please supply the value of reported Drug uptake(free) for the item "CCS(=O)(=O)CC12CCC(c3nnc(-c4ccccc4C(F)(F)F)n3C)(CC1)CC2"
Result block: 0.2

Query block: Please supply the value of reported Drug uptake(free) for the item "Cn1c(-c2ccccc2C(F)(F)F)nnc1C12CCC(c3noc(C(C)(F)F)n3)(CC1)CC2"
Result block: 2.4

Further cases:
Query block: Please supply the value of reported Drug uptake(free) for the item "CCS(=O)(=O)CCC12CCC(c3nnc(-c4ccccc4C(F)(F)F)n3C)(CC1)CC2"
Result block: 0.2

* * *

test system: Brain; assay: Free drug level in spontaneously hypertensive rat brain at 10 mg/kg measured after 4 hrs; format: ADME, organism-based; design: dose 10 mg/kg; settings: in vivo
Please respond with reported Drug uptake(free) for every item in the list.
Numbers only, in µM.

Query block: Given "Cn1c(-c2ccccc2C(F)(F)F)nnc1C12CCC(c3noc(C(C)(F)F)n3)(CC1)CC2" , report its Drug uptake(free) on Brain.
Result block: 3

Provide Drug uptake(free) values for the following items, in order.
1. CCS(=O)(=O)CC12CCC(c3nnc(-c4ccccc4C(F)(F)F)n3C)(CC1)CC2
2. Cn1c(-c2ccccc2C(F)(F)F)nnc1C12CCC(c3nc(-c4ccc(F)cc4)no3)(CC1)CC2
3. CCS(=O)(=O)CCC12CCC(c3nnc(-c4ccccc4C(F)(F)F)n3C)(CC1)CC2

Result block:
1: 1.3; 2: 0.08; 3: 0.5

* * *

assay: Total drug level in spontaneously hypertensive rat brain at 10 mg/kg measured after 4 hrs; assay type: ADME, organism-based; parameters: dose 10 mg/kg; settings: read-out: Drug uptake
Please respond with reported concentration at 4 h for every item in the list.
Give bare numbers, in µM.

Below, each entry is followed by its recorded concentration at 4 h result.
Query block: Please supply the value of reported concentration at 4 h for the item "CCS(=O)(=O)CC12CCC(c3nnc(-c4ccccc4C(F)(F)F)n3C)(CC1)CC2"
Result block: 3.1

Query block: Please supply the value of reported concentration at 4 h for the item "CCS(=O)(=O)CCC12CCC(c3nnc(-c4ccccc4C(F)(F)F)n3C)(CC1)CC2"
Result block: 5

Query block: Please supply the value of reported concentration at 4 h for the item "Cn1c(-c2ccccc2C(F)(F)F)nnc1C12CCC(c3noc(C(C)(F)F)n3)(CC1)CC2"
Result block: 60.5

Next:
Query block: Please supply the value of reported concentration at 4 h for the item "Cn1c(-c2ccccc2C(F)(F)F)nnc1C12CCC(c3nc(-c4ccc(F)cc4)no3)(CC1)CC2"
Result block: 44.4

* * *

assay: Ratio of drug level in brain to plasma of spontaneously hypertensive rat at 10 mg/kg; assay type: ADME, organism-based; set-up: dose 10 mg/kg; conditions: read-out: BPR
metric: Kp

Below, each entry is followed by its recorded Kp result.
Query block: Please supply the value of reported Kp for the item "Cn1c(-c2ccccc2C(F)(F)F)nnc1C12CCC(c3noc(C(C)(F)F)n3)(CC1)CC2"
Result block: > 1

Query block: Please supply the value of reported Kp for the item "Cn1c(-c2ccccc2C(F)(F)F)nnc1C12CCC(c3nc(-c4ccc(F)cc4)no3)(CC1)CC2"
Result block: > 1

Query block: Please supply the value of reported Kp for the item "CCS(=O)(=O)CCC12CCC(c3nnc(-c4ccccc4C(F)(F)F)n3C)(CC1)CC2"
Result block: < 1

Next:
Query block: Please supply the value of reported Kp for the item "CCS(=O)(=O)CC12CCC(c3nnc(-c4ccccc4C(F)(F)F)n3C)(CC1)CC2"
Result block: < 1

* * *

assay: Plasma concentration in spontaneously hypertensive rat model at 10 mg/kg measured after 24 hrs; format: ADME, organism-based; parameters: dose 10 mg/kg
Please respond with reported concentration at 24 h for every item in the list.
Give bare numbers, in µM.

Below, each entry is followed by its recorded concentration at 24 h result.
Query block: Please supply the value of reported concentration at 24 h for the item "Cn1c(-c2ccccc2C(F)(F)F)nnc1C12CCC(c3nc(-c4ccc(F)cc4)no3)(CC1)CC2"
Result block: 12.1

Query block: Please supply the value of reported concentration at 24 h for the item "Cn1c(-c2ccccc2C(F)(F)F)nnc1C12CCC(c3noc(C(C)(F)F)n3)(CC1)CC2"
Result block: 25.4

Further cases:
Query block: Please supply the value of reported concentration at 24 h for the item "CCS(=O)(=O)CCC12CCC(c3nnc(-c4ccccc4C(F)(F)F)n3C)(CC1)CC2"
Result block: 6
